assay: Plasma pharmacokinetics of telatinib and metabolite BAY 60-8246 (LC-MS-MS, non-compartmental); format: in vivo, human; settings: human; telatinib in plasma, day 14 cycle 1, 900 mg BID oral, 150 mg mesylate tablet, n=12, median (range); read-out: tmax
MEASURE: Tmax (h)

[[record]]
line_notation = "CNC(=O)c1cc(COc2nnc(Nc3ccc(Cl)cc3)c3ccoc23)ccn1"
measure = "Tmax"
result_value = 2


====

test: Plasma pharmacokinetics of telatinib and metabolite BAY 60-8246 (LC-MS-MS, non-compartmental); format: in vivo, human; settings: human; telatinib in plasma, day 14 cycle 1, 150 mg BID oral, 25 mg mesylate tablet, n=6, geometric mean (%CV)
MEASURE: Cmax (ng/mL)

[[record]]
line_notation = "CNC(=O)c1cc(COc2nnc(Nc3ccc(Cl)cc3)c3ccoc23)ccn1"
result_value = 219


====

test: Plasma pharmacokinetics of telatinib and metabolite BAY 60-8246 (LC-MS-MS, non-compartmental); format: in vivo, human; conditions: human; telatinib in plasma, day 14 cycle 1, 300 mg BID oral, 25 mg mesylate tablet, n=6 (sample size reduced by 2), geometric mean (%CV); read-out: AUC0–12
MEASURE: AUC(0-t)

[[record]]
molecule = "CNC(=O)c1cc(COc2nnc(Nc3ccc(Cl)cc3)c3ccoc23)ccn1 [telatinib]"
result_value = "2860 ng·h/mL"


====

assay: Plasma pharmacokinetics of telatinib and metabolite BAY 60-8246 (LC-MS-MS, non-compartmental); type: in vivo, human; settings: human; telatinib in plasma, day 14 cycle 1, 1200 mg BID oral, 150 mg mesylate tablet, n=6, geometric mean (%CV); read-out: t1/2 (converted)
MEASURE: half-life (h)

[[record]]
line_notation = "CNC(=O)c1cc(COc2nnc(Nc3ccc(Cl)cc3)c3ccoc23)ccn1"
measure = "half-life"
result_value = 5.6


====

assay: Plasma pharmacokinetics of telatinib and metabolite BAY 60-8246 (LC-MS-MS, non-compartmental); format: in vivo, human; conditions: human; telatinib in plasma, day 14 cycle 1, 75 mg BID oral, 25 mg mesylate tablet, n=4, median (range); read-out: tmax
MEASURE: Tmax (h)

[[record]]
line_notation = "CNC(=O)c1cc(COc2nnc(Nc3ccc(Cl)cc3)c3ccoc23)ccn1"
measure = "Tmax"
endpoint_unit = "h"
result_value = 2.1


====

test: Plasma pharmacokinetics of telatinib and metabolite BAY 60-8246 (LC-MS-MS, non-compartmental); assay type: in vivo, human; conditions: human; telatinib in plasma, day 14 cycle 1, 900 mg BID oral, 150 mg mesylate tablet, n=12 (sample size reduced by 2), geometric mean (%CV); read-out: t1/2 (converted)
MEASURE: half-life (h)

[[record]]
line_notation = "CNC(=O)c1cc(COc2nnc(Nc3ccc(Cl)cc3)c3ccoc23)ccn1"
endpoint_unit = "h"
result_value = 5.6


====

experiment: Plasma pharmacokinetics of telatinib and metabolite BAY 60-8246 (LC-MS-MS, non-compartmental); type: in vivo, human; conditions: human; telatinib in plasma, day 14 cycle 1, 900 mg BID oral, 150 mg mesylate tablet, n=12, geometric mean (%CV)
MEASURE: Cmax (ng/mL)

[[record]]
line_notation = "CNC(=O)c1cc(COc2nnc(Nc3ccc(Cl)cc3)c3ccoc23)ccn1"
measure = "Cmax"
endpoint_unit = "ng/mL"
result_value = 1280


====

experiment: Plasma pharmacokinetics of telatinib and metabolite BAY 60-8246 (LC-MS-MS, non-compartmental); type: in vivo, human; conditions: human; telatinib in plasma, day 14 cycle 1, 300 mg BID oral, 25 mg mesylate tablet, n=6, geometric mean (%CV); read-out: AUC0–tn
MEASURE: AUC

[[record]]
line_notation = "CNC(=O)c1cc(COc2nnc(Nc3ccc(Cl)cc3)c3ccoc23)ccn1"
result_value = "1920 ng·h/mL"

